test system: Rattus norvegicus; assay: Inhibition of rat carrageenan induced foot-pad edema at a dose of 30 mg/kg on peroral administration; details: po, read-out: Inhibition
measured attribute: inhibition in vivo at 30 mg/kg (%)

structure_notation=CC(C)(C)c1cc(/C=C2\SC(=S)NC2=O)cc(C(C)(C)C)c1O tgt="Rattus norvegicus" quantitative_result=36
structure_notation=CC(C)(C)c1cc(/C=C2\SC(N=C(N)N)=NC2=O)cc(C(C)(C)C)c1O tgt="Rattus norvegicus" quantitative_result=40
structure_notation=CC(C)(C)c1cc(/C=C2\CC(=S)NC2=O)cc(C(C)(C)C)c1O tgt="Rattus norvegicus" quantitative_result=39

----------
Documented pIC50 across a set of molecules
Target: Polyunsaturated fatty acid 5-lipoxygenase (Rattus norvegicus)
Sequence (P12527 whole entry): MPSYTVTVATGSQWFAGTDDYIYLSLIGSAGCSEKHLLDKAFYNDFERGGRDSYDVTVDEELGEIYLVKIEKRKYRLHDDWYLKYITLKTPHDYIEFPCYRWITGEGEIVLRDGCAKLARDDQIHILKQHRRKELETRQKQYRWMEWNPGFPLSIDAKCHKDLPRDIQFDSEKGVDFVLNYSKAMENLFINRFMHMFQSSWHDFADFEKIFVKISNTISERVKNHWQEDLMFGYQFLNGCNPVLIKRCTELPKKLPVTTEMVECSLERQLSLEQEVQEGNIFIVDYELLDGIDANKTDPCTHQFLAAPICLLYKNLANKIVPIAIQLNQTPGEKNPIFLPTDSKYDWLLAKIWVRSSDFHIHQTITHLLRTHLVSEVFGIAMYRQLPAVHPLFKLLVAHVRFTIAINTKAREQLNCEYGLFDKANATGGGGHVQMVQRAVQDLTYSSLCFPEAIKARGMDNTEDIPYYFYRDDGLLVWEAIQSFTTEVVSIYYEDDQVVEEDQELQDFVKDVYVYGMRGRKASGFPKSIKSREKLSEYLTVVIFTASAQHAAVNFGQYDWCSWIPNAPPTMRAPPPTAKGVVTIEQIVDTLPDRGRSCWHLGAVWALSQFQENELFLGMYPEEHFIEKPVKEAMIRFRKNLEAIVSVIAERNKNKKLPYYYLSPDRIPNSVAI
pIC50: −log10 of the molar value.
measured attribute: pIC50

molecule=C/C(=C1/SC(NC#N)=NC1=O)c1cc(C(C)(C)C)c(O)c(C(C)(C)C)c1 quantitative_result=5.92
molecule=CN1C(NC(=N)N)=NC(=O)/C1=C/c1cc(C(C)(C)C)c(O)c(C(C)(C)C)c1 quantitative_result=5.89
molecule="CC(C)(C)c1cc(/C=C2\\SC(=N)NC2=O)cc(C(C)(C)C)c1O.CS(=O)(=O)O [DARBUFELONE MESYLATE]" quantitative_result=6.11
molecule=CN1C(NC#N)=NC(=O)/C1=C/c1cc(C(C)(C)C)c(O)c(C(C)(C)C)c1 quantitative_result=6.15
molecule=C/C(=C1/SC(N=C(N)N)=NC1=O)c1cc(C(C)(C)C)c(O)c(C(C)(C)C)c1 quantitative_result=5.80
molecule=CC(C)(C)c1cc(/C=C2\SC(=S)NC2=O)cc(C(C)(C)C)c1O quantitative_result=6.42
molecule=CSC1=NC(=O)/C(=C/c2cc(C(C)(C)C)c(O)c(C(C)(C)C)c2)S1 quantitative_result=6.19
molecule=CC(C)c1cc(/C=C2\SC(=O)NC2=O)cc(C(C)C)c1O quantitative_result=6.66
molecule=CN(O)C1=NC(=O)/C(=C/c2cc(C(C)(C)C)c(O)c(C(C)(C)C)c2)S1.Cl quantitative_result=5.77
